- assayed-system: cIAP1-BIR2 (Homo sapiens (Human))
- Sequence (Q13490 173-257): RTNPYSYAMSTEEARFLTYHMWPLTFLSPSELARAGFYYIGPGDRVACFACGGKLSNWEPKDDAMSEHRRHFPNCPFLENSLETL
- experiment: BIR binding assay (FRET competition), cIAP1 BIR2
measured-metric: IC50

Example entries begin here.
chemical-structure	IC50
COC(=O)c1cc(F)ccc1Cc1cnc2c(c1)N(C(=O)CN1C[C@@H](C)NC[C@@H]1CN1CCO[C@H](COc3cccc(OC[C@@H]4CN(C[C@H]5CN[C@H](C)CN5CC(=O)N5CC(C)(C)c6ncc(Cc7ccc(F)cc7C(=O)OC)cc65)CCO4)c3)C1)CC2(C)C	3.16 to 10 µM
C[C@@H]1CN(CC(=O)N2CC(C)(C)c3[nH]c(=O)c(Cc4ccc(F)cc4)cc32)[C@@H](CN2CCO[C@H](C(=O)NCC(O)CNC(=O)[C@@H]3CN(C[C@H]4CN[C@H](C)CN4CC(=O)N4CC(C)(C)c5[nH]c(=O)c(Cc6ccc(F)cc6)cc54)CCO3)C2)CN1	1 to 3.16 µM
C[C@@H]1CN(CC(=O)N2CC(C)(C)c3[nH]c(=O)c(Cc4ccc(Cl)cc4C(F)(F)F)cc32)[C@@H](CN2CCO[C@H](C(=O)NCc3ccc(CNC(=O)[C@@H]4CN(C[C@H]5CN[C@H](C)CN5CC(=O)N5CC(C)(C)c6[nH]c(=O)c(Cc7ccc(Cl)cc7C(F)(F)F)cc65)CCO4)cc3)C2)CN1	3.16 to 10 µM
C[C@@H]1CN(CC(=O)N2CC(C)(C)c3ncc(Cc4cccnc4)cc32)[C@@H](CN2CCO[C@H](COc3cccc(OC[C@@H]4CN(C[C@H]5CN[C@H](C)CN5CC(=O)N5CC(C)(C)c6ncc(Cc7cccnc7)cc65)CCO4)c3)C2)CN1	10 to 51.3 µM
C[C@@H]1CN(CC(=O)N2CC(C)(C)c3[nH]c(=O)c(Cc4ccc(F)cc4)cc32)[C@@H](CN2CCC(CN(C)C(=O)Cc3cccc(C(=O)N(C)CC4CCN(C[C@H]5CN[C@H](C)CN5CC(=O)N5CC(C)(C)c6[nH]c(=O)c(Cc7ccc(F)cc7)cc65)CC4)c3)CC2)CN1	1 to 3.16 µM

Entry `C[C@@H]1CN(CC(=O)N2CC(C)(C)c3[nH]c(=O)c(Cc4ccc(F)cc4)cc32)[C@@H](CN2CCO[C@H](C(=O)N3CCN(C(=O)[C@@H]4CN(C[C@H]5CN[C@H](C)CN5CC(=O)N5CC(C)(C)c6[nH]c(=O)c(Cc7ccc(F)cc7)cc65)CCO4)CC3)C2)CN1` — recorded IC50 = 1 to 3.16 µM

Sample `C[C@@H]1CN(CC(=O)N2CC(C)(C)c3[nH]c(=O)c(Cc4ccc(F)cc4)cc32)[C@@H](CN2CCN(C(=O)c3ccc(/C=C/c4ccc(C(=O)N5CCN(C[C@H]6CN[C@H](C)CN6CC(=O)N6CC(C)(C)c7[nH]c(=O)c(Cc8ccc(F)cc8)cc76)[C@H](C)C5)cc4)cc3)C[C@H]2C)CN1` ; IC50 observed: 0.0224 to 1 µM
